# tested system: xanthine oxidase (Bos taurus, UniProt P80457)
# Sequence (P80457 whole entry): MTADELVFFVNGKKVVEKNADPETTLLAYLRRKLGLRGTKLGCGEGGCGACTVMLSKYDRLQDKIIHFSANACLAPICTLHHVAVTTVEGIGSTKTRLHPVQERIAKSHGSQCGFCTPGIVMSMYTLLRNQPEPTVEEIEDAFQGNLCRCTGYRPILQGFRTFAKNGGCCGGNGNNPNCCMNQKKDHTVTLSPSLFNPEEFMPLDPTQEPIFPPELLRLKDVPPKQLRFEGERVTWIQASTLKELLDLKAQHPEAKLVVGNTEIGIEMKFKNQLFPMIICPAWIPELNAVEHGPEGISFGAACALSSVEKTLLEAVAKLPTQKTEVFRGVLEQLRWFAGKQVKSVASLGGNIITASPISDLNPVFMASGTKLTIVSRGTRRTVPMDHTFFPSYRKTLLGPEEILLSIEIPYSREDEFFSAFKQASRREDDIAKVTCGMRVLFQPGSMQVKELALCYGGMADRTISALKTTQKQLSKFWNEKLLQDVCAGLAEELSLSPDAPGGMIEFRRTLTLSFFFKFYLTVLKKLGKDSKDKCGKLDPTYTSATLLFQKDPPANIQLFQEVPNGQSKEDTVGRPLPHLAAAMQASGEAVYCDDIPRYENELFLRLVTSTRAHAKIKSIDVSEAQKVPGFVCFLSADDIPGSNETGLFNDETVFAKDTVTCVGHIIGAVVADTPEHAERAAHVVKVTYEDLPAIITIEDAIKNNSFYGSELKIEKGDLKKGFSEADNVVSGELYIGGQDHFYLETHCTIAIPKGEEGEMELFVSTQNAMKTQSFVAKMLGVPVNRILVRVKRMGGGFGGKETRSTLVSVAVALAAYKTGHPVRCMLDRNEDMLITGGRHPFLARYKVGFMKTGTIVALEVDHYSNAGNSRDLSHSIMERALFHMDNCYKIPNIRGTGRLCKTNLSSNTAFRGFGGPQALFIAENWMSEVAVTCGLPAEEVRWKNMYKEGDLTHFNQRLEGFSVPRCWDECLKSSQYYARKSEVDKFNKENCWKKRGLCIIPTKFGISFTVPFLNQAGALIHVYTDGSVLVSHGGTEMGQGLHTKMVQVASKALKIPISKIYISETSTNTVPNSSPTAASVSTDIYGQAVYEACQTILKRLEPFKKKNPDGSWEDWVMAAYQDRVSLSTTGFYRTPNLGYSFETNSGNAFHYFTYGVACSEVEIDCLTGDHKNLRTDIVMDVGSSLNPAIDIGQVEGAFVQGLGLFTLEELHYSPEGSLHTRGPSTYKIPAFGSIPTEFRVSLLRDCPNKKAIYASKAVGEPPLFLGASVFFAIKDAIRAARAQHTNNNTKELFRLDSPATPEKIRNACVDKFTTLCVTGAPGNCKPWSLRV
# method summary: in vitro xanthine oxidase (X.O.) inhibition
# Type: biochemical
# condition notes: Table 1; compound concentration 2×10^-5 M; read-out: % X.O. Inhibition
Exercise: for every item that follows, state its recorded inhibition at 20 µM.
Answers are plain numbers, in %.

compound	inhibition at 20 µM (%)
Clc1cc2nc(-c3ccncc3)[nH]c2cc1Cl [drawing 7]	56
c1cnc2[nH]c(-c3ccncc3)nc2c1	8
c1cncc(-c2nc3cnccc3[nH]2)c1	23
Cc1cnc(-c2ccncc2)[nH]1	4

# return inhibition at 20 µM for each item in the list
1. Clc1ccc2[nH]c(-c3ccncc3)nc2c1 [drawing 6]
2. Cc1cnc(-c2cccnc2)[nH]1
3. c1cc(-c2nc3cnccc3[nH]2)ccn1

[11, 0, 62]

Answer with reported inhibition at 20 µM of c1cncc(-c2nc3cccnc3[nH]2)c1
5

Cited source: patent US4336257A
